GI50 values, listed per item
System: KM12
Procedure Details: Cytotoxicity against human KM12 cells
Type: functional
Observed Property: GI50 (µM)

INSERT INTO assay_data (molecule, result_number) VALUES
  ('CC1OC(=O)[C@H]2[C@H]1[C@@H](O)C[C@H]1[C@]3(C)CC[C@H]4C(C)(C)CCC[C@]4(C)[C@H]3C[C@@H](O)[C@]21C (some centres undefined)', 25.1),
  ('CC(=O)O[C@H]1C[C@H]2[C@@](C)(CC[C@H]3C(C)(C)CCC[C@@]32CO)[C@@H]2CC=C(C(C)=O)[C@H](C=O)[C@@]12C', 0.501),
  ('CC(=O)C1=CC[C@H]2[C@]3(C)CC[C@H]4C(C)(C)CCC[C@]4(C(=O)O)[C@H]3CC(=O)[C@]2(C)[C@H]1C=O', 1.41),
  ('CC(=O)O[C@@H]1C[C@H]2[C@]3(C)CC[C@H]4C(C)(C)CCC[C@]4(C)[C@H]3C[C@H](O)[C@]2(C)[C@@H](C=O)[C@@H]1C(C)=O [SCALARHERBACIN A]', 1.48);

====

TGI values, listed per item
Test system: ACHN
Procedure Details: Cytotoxicity against human ACHN cells
Format: functional
Recorded Conditions: read-out: Log TGI (converted)
Observed Property: TGI

INSERT INTO results (compound, result) VALUES
  ('CC(=O)O[C@H]1C[C@H]2[C@@](C)(CC[C@H]3C(C)(C)CCC[C@@]32CO)[C@@H]2CC=C(C(C)=O)[C@H](C=O)[C@@]12C', '1.07 µM'),
  ('CC(=O)O[C@@H]1C[C@H]2[C@]3(C)CC[C@H]4C(C)(C)CCC[C@]4(C)[C@H]3C[C@H](O)[C@]2(C)[C@@H](C=O)[C@@H]1C(C)=O', '1.55 µM'),
  ('CC(=O)C1=CC[C@H]2[C@]3(C)CC[C@H]4C(C)(C)CCC[C@]4(C(=O)O)[C@H]3CC(=O)[C@]2(C)[C@H]1C=O', '1.7 µM'),
  ('CC1OC(=O)[C@H]2[C@H]1[C@@H](O)C[C@H]1[C@]3(C)CC[C@H]4C(C)(C)CCC[C@]4(C)[C@H]3C[C@@H](O)[C@]21C (some centres undefined)', '31.6 µM');

====

GI50 values, listed per item
Test system: K562
Procedure Details: Cytotoxicity against human K562 cells
Assay type: functional
Observed Property: GI50 (nM)

INSERT INTO results (compound, unit_symbol, result_number) VALUES
  ('CC(=O)O[C@@H]1C[C@H]2[C@]3(C)CC[C@H]4C(C)(C)CCC[C@]4(C)[C@H]3C[C@H](O)[C@]2(C)[C@@H](C=O)[C@@H]1C(C)=O', 'nM', 1740),
  ('CC(=O)O[C@H]1C[C@H]2[C@@](C)(CC[C@H]3C(C)(C)CCC[C@@]32CO)[C@@H]2CC=C(C(C)=O)[C@H](C=O)[C@@]12C', 'nM', 2190),
  ('CC1OC(=O)[C@H]2[C@H]1[C@@H](O)C[C@H]1[C@]3(C)CC[C@H]4C(C)(C)CCC[C@]4(C)[C@H]3C[C@@H](O)[C@]21C (some centres undefined)', 'nM', 29500),
  ('CC(=O)C1=CC[C@H]2[C@]3(C)CC[C@H]4C(C)(C)CCC[C@]4(C(=O)O)[C@H]3CC(=O)[C@]2(C)[C@H]1C=O', 'nM', 2040);

====

System: DU-145
Procedure Details: Cytotoxicity against human DU145 cells
Type: functional
LC50 values, listed per item
Observed Property: LC50 (µM)

INSERT INTO results (compound, observed_property, unit_symbol, result_number) VALUES
  ('CC(=O)O[C@H]1C[C@H]2[C@@](C)(CC[C@H]3C(C)(C)CCC[C@@]32CO)[C@@H]2CC=C(C(C)=O)[C@H](C=O)[C@@]12C', 'LC50', 'µM', 3.98),
  ('CC(=O)C1=CC[C@H]2[C@]3(C)CC[C@H]4C(C)(C)CCC[C@]4(C(=O)O)[C@H]3CC(=O)[C@]2(C)[C@H]1C=O', 'LC50', 'µM', 5.5),
  ('CC1OC(=O)[C@H]2[C@H]1[C@@H](O)C[C@H]1[C@]3(C)CC[C@H]4C(C)(C)CCC[C@]4(C)[C@H]3C[C@@H](O)[C@]21C (some centres undefined)', 'LC50', 'µM', 72.4),
  ('CC(=O)O[C@@H]1C[C@H]2[C@]3(C)CC[C@H]4C(C)(C)CCC[C@]4(C)[C@H]3C[C@H](O)[C@]2(C)[C@@H](C=O)[C@@H]1C(C)=O', 'LC50', 'µM', 5.13);

====

Test system: HCT-116
Procedure Details: Cytotoxicity against human HCT116 cells
Assay type: functional
Recorded Conditions: read-out: Log LC50 (the source's name) (converted)
CC50 values, listed per item
Observed Property: CC50 (µM)

INSERT INTO results (compound, observed_property, result_number) VALUES
  ('CC1OC(=O)[C@H]2[C@H]1[C@@H](O)C[C@H]1[C@]3(C)CC[C@H]4C(C)(C)CCC[C@]4(C)[C@H]3C[C@@H](O)[C@]21C (some centres undefined)', 'CC50', 47.9),
  ('CC(=O)O[C@H]1C[C@H]2[C@@](C)(CC[C@H]3C(C)(C)CCC[C@@]32CO)[C@@H]2CC=C(C(C)=O)[C@H](C=O)[C@@]12C', 'CC50', 0.676),
  ('CC(=O)O[C@@H]1C[C@H]2[C@]3(C)CC[C@H]4C(C)(C)CCC[C@]4(C)[C@H]3C[C@H](O)[C@]2(C)[C@@H](C=O)[C@@H]1C(C)=O [SCALARHERBACIN A]', 'CC50', 3.72),
  ('CC(=O)C1=CC[C@H]2[C@]3(C)CC[C@H]4C(C)(C)CCC[C@]4(C(=O)O)[C@H]3CC(=O)[C@]2(C)[C@H]1C=O', 'CC50', 4.07);

====

Test system: NCI-H322M
Procedure Details: Cytotoxicity against human NCI-H322M cells
Assay type: functional
Recorded Conditions: read-out: Log TGI (converted)
Observed Property: TGI (µM)

INSERT INTO results (compound, result_number) VALUES
  ('CC1OC(=O)[C@H]2[C@H]1[C@@H](O)C[C@H]1[C@]3(C)CC[C@H]4C(C)(C)CCC[C@]4(C)[C@H]3C[C@@H](O)[C@]21C (some centres undefined)', 93.3),
  ('CC(=O)O[C@@H]1C[C@H]2[C@]3(C)CC[C@H]4C(C)(C)CCC[C@]4(C)[C@H]3C[C@H](O)[C@]2(C)[C@@H](C=O)[C@@H]1C(C)=O', 4.27),
  ('CC(=O)O[C@H]1C[C@H]2[C@@](C)(CC[C@H]3C(C)(C)CCC[C@@]32CO)[C@@H]2CC=C(C(C)=O)[C@H](C=O)[C@@]12C', 3.8),
  ('CC(=O)C1=CC[C@H]2[C@]3(C)CC[C@H]4C(C)(C)CCC[C@]4(C(=O)O)[C@H]3CC(=O)[C@]2(C)[C@H]1C=O', 10.5);

====

Tested on: PC-3
Procedure Details: Cytotoxicity against human PC3 cells
Format: functional
GI50 values, listed per item
Observed Property: GI50 (nM)

INSERT INTO results (compound, result_number) VALUES
  ('CC(=O)O[C@H]1C[C@H]2[C@@](C)(CC[C@H]3C(C)(C)CCC[C@@]32CO)[C@@H]2CC=C(C(C)=O)[C@H](C=O)[C@@]12C', 380),
  ('CC(=O)O[C@@H]1C[C@H]2[C@]3(C)CC[C@H]4C(C)(C)CCC[C@]4(C)[C@H]3C[C@H](O)[C@]2(C)[C@@H](C=O)[C@@H]1C(C)=O', 741),
  ('CC1OC(=O)[C@H]2[C@H]1[C@@H](O)C[C@H]1[C@]3(C)CC[C@H]4C(C)(C)CCC[C@]4(C)[C@H]3C[C@@H](O)[C@]21C (some centres undefined)', 17000),
  ('CC(=O)C1=CC[C@H]2[C@]3(C)CC[C@H]4C(C)(C)CCC[C@]4(C(=O)O)[C@H]3CC(=O)[C@]2(C)[C@H]1C=O', 977);

====

GI50 values, listed per item
System: COLO 205
Procedure Details: Cytotoxicity against human COLO205 cells
Type: functional
Observed Property: GI50

INSERT INTO measurements (compound, observed_property, result) VALUES
  ('CC(=O)O[C@@H]1C[C@H]2[C@]3(C)CC[C@H]4C(C)(C)CCC[C@]4(C)[C@H]3C[C@H](O)[C@]2(C)[C@@H](C=O)[C@@H]1C(C)=O [SCALARHERBACIN A]', 'GI50', '537 nM'),
  ('CC(=O)O[C@H]1C[C@H]2[C@@](C)(CC[C@H]3C(C)(C)CCC[C@@]32CO)[C@@H]2CC=C(C(C)=O)[C@H](C=O)[C@@]12C', 'GI50', '295 nM'),
  ('CC1OC(=O)[C@H]2[C@H]1[C@@H](O)C[C@H]1[C@]3(C)CC[C@H]4C(C)(C)CCC[C@]4(C)[C@H]3C[C@@H](O)[C@]21C (some centres undefined)', 'GI50', '15800 nM'),
  ('CC(=O)C1=CC[C@H]2[C@]3(C)CC[C@H]4C(C)(C)CCC[C@]4(C(=O)O)[C@H]3CC(=O)[C@]2(C)[C@H]1C=O', 'GI50', '794 nM');
